system-under-test: T1, in vitro denatured human SOD1 (human, UniProt P00441 2-154)
T1 construct: also called Denatured SOD1; unfolded SOD1
T1 sequence (P00441 2-154 limits assumed): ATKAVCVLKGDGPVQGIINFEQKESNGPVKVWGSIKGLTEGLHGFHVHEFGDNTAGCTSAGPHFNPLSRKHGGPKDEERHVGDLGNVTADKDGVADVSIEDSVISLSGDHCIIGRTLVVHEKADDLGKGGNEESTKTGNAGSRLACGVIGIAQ
assay-text: direct ELISA, denatured human SOD1 coated at 20 µg/ml
measured-endpoint: pEC50
Lab note: report pEC50 as minus log10 of the concentration in molar units, number only.

Exercise: GET /values?readout=pEC50&item= NI-204.11F11 (antibody, human IgG1, V domains shown) VH: EVQLVESGGGLVKPGGSLRLSCAASGLPFSKAWMSWVRQAPGKGLEWVGRIKSQADGGAIDYATSVNGRFTITRDDSKNTLYLQMTSLKTEDTAVYYCTPGIILRFLEGTLRGMDVWGQGTTVTVSS VL: EIVLTQSPPTLSLSPGERATLSCRASQTVSKYLAWYQQKPGQAPRLLVYDTSNRAIGIPPRFSGSGSGTDFTLTISTLEPEDFALYYCQQRSNWPPTFGQGTRLEIK
Key: 9.52
